3DC % control reference
System: Septoria tritici (SEPTTR)
TEST SUMMARY: Evaluation of fungicidal activity: leaf blotch of wheat, disease control on wheat seedlings
Type: in vivo
EXPERIMENTAL CONDITIONS: 3DC, 25 g/ha, wheat (variety Yuma) seedlings
Field: numeric (%). Do not append units.

N#Cc1ccc(Oc2ccc(C(F)(F)C(O)(Cn3ncnc3S)c3ccc(F)cc3F)nc2)cc1 (stereo not shown)	99
OC(Cn1cncn1)(c1ccc(F)cc1F)C(F)(F)c1ccc(OCc2cccc(F)c2F)cn1 (stereo not shown) [Example 45*, reference compound]	85
N#Cc1ccc(Oc2ccc(C(F)(F)C(O)(Cn3cnnn3)c3ccc(F)cc3F)nc2)cc1 (stereo not shown) [Example 5*, reference compound]	47

Q: Which 3DC % control value belongs to N#Cc1ccc(Oc2ccc(C(F)(F)C(O)(Cn3cncn3)c3ccc(F)cc3F)nc2)cc1 (stereo not shown) ?
Result: 100

* * *

The entries below are paired with their reported H2O solubility (ppm) (thermodynamic).
TEST SUMMARY: Thermodynamic water solubility
Format: physicochemical
Include the unit right after the number.

Consider the worked cases shown below.
N#Cc1ccc(Oc2ccc(C(F)(F)C(O)(Cn3ncnc3S)c3ccc(F)cc3F)nc2)cc1 (stereo not shown)	23.04 ppm
OC(Cn1cncn1)(c1ccc(F)cc1F)C(F)(F)c1ccc(OCc2cccc(F)c2F)cn1 (stereo not shown) [Example 45*, reference compound]	5.15 ppm
N#Cc1ccc(Oc2ccc(C(F)(F)C(O)(Cn3cnnn3)c3ccc(F)cc3F)nc2)cc1 (stereo not shown) [Example 5*, reference compound]	28.39 ppm

As a next step, examine the molecule that follows.
Q: Field request: H2O solubility (ppm) (thermodynamic) | item: N#Cc1ccc(Oc2ccc(C(F)(F)C(O)(Cn3cncn3)c3ccc(F)cc3F)nc2)cc1 (stereo not shown)
Result: 37.33 ppm

* * *

Test system: Septoria tritici (SEPTTR)
TEST SUMMARY: Evaluation of fungicidal activity: leaf blotch of wheat, disease control on wheat seedlings
Assay type: in vivo
EXPERIMENTAL CONDITIONS: 3DP, 100 g/ha, wheat (variety Yuma) seedlings
Reported 3DP % Control by item:
Write the value in % as a bare number.

Recorded 3DP % Control, per entry:
N#Cc1ccc(Oc2ccc(C(F)(F)C(O)(Cn3ncnc3S)c3ccc(F)cc3F)nc2)cc1 (stereo not shown)	100
OC(Cn1cncn1)(c1ccc(F)cc1F)C(F)(F)c1ccc(OCc2cccc(F)c2F)cn1 (stereo not shown) [Example 45*, reference compound]	95
N#Cc1ccc(Oc2ccc(C(F)(F)C(O)(Cn3cnnn3)c3ccc(F)cc3F)nc2)cc1 (stereo not shown) [Example 5*, reference compound]	64

With those in mind, consider the next compound.
Q: Give the reported 3DP % Control for N#Cc1ccc(Oc2ccc(C(F)(F)C(O)(Cn3cncn3)c3ccc(F)cc3F)nc2)cc1 (stereo not shown) (system: Septoria tritici (SEPTTR)).
Result: 100

* * *

TEST SUMMARY: Log D partition coefficient, CHI method
Format: physicochemical
chromatographic logD: recorded values
Hey, just send me the number, nothing else.

Sample answers from the record:
N#Cc1ccc(Oc2ccc(C(F)(F)C(O)(Cn3cncn3)c3ccc(F)cc3F)nc2)cc1 (stereo not shown) [Example 1]	2.9
OC(Cn1cncn1)(c1ccc(F)cc1F)C(F)(F)c1ccc(OCc2cccc(F)c2F)cn1 (stereo not shown) [Example 45*, reference compound]	3.32
N#Cc1ccc(Oc2ccc(C(F)(F)C(O)(Cn3cnnn3)c3ccc(F)cc3F)nc2)cc1 (stereo not shown) [Example 5*, reference compound]	3.02

Now take the following compound into account.
Q: So what does the record say about chromatographic logD for N#Cc1ccc(Oc2ccc(C(F)(F)C(O)(Cn3ncnc3S)c3ccc(F)cc3F)nc2)cc1 (stereo not shown) [Example 2] ?
Result: 2.83

src = patent US11051514B2
